Where do these numbers come from? They come from paper PMC13366236.

System: HCT-116 cells
assay-overview: Cell viability CCK-8 assay
Type: cell-based
condition-label: Homo sapiens, HCT-116, 48 h, read-out: Antiproliferative IC50 ± SD
reported-endpoint: log10(IC50) (log10 of the value in nM)
All values: base-10 log of IC50 in nM.

[
  {
    "molecule": "Nc1nc2ccc(-c3c/c(=N\\c4ccccc4NC(=O)C4CCNC4)c4ccccc4o3)cc2o1 (centres unmarked) [Compound 12i]",
    "log10(IC50)": 5.50
  },
  {
    "molecule": "COc1ccc2oc(-c3ccc4nc(N)oc4c3)c/c(=N\\c3ccccc3NC(=O)CCN)c2c1 [Compound 12j]",
    "log10(IC50)": 2.74
  },
  {
    "molecule": "CNCCC(=O)Nc1ccccc1/N=c1\\cc(-c2ccc3nc(N)oc3c2)oc2ccccc12 [Compound 12c]",
    "log10(IC50)": 2.95
  },
  {
    "molecule": "NCCC(=O)Nc1ccccc1/N=c1\\cc(-c2ccc3nc(N)oc3c2)oc2ccc(O)cc12 [Compound 12n]",
    "log10(IC50)": 3.20
  },
  {
    "molecule": "NCCC(=O)Nc1ccccc1/N=c1\\cc(-c2ccc3nc(N)oc3c2)oc2ccccc12 [Compound 12a]",
    "log10(IC50)": 3.18
  }
]

Now take the following molecule into account.
[ask] Could you tell me which log10(IC50) is on file for NCCC(=O)Nc1ccccc1/N=c1\cc(-c2ccc3nc(N)oc3c2)oc2ccc(F)cc12 [Compound 12k] ?
[reply] 2.49
